assay-summary: Metabolic stability in mouse liver microsomes assessed as half-life at 1 uM measured up to 60 mins by LC-MS/MS analysis
Type: ADME, Microsome
readout-label: half-life at 1 µM (min)
Express it in min; write the number only.

[[record]]
compound = "C=C[C@]1(C)C[C@@H](OC(=O)CS[C@@H]2C[C@H]3CC[C@@H](C2)N3C)[C@]2(C)[C@H](C)CC[C@]3(CCC(=O)[C@H]32)[C@@H](C)[C@@H]1O"
readout_label = "half-life at 1 µM"
endpoint_result = 1.3

[[record]]
compound = "C=C[C@]1(C)C[C@@H](OC(=O)Cn2cc(-c3ccc(Nc4ncnc5[nH]cnc45)cc3)nn2)[C@]2(C)[C@H](C)CC[C@]3(CCC(=O)[C@H]32)[C@@H](C)[C@@H]1O"
readout_label = "half-life at 1 µM"
endpoint_result = 1.76

[[record]]
compound = "C=C[C@]1(C)C[C@@H](OC(=O)Cn2cc(-c3cncc(C(=O)Nc4ncnc5[nH]cnc45)c3)nn2)[C@]2(C)[C@H](C)CC[C@]3(CCC(=O)[C@H]32)[C@@H](C)[C@@H]1O"
readout_label = "half-life at 1 µM"
endpoint_result = 1.3

[[record]]
compound = "C=C[C@]1(C)C[C@@H](OC(=O)Cn2cc(-c3ccc(CNc4cc(N)ncn4)cc3)nn2)[C@]2(C)[C@H](C)CC[C@]3(CCC(=O)[C@H]32)[C@@H](C)[C@@H]1O"
readout_label = "half-life at 1 µM"
endpoint_result = 0.55


[ask] Any idea what its half-life at 1 µM is? The compound is C=C[C@]1(C)C[C@@H](OC(=O)Cn2cc(-c3cncc(C(O)c4ccc5c(N)ncnn45)c3)nn2)[C@]2(C)[C@H](C)CC[C@]3(CCC(=O)[C@H]32)[C@@H](C)[C@@H]1O (stereo not given in full)
[reply] 2.5

* * *

assay-summary: Metabolic stability in mouse liver microsomes assessed as half-life at 1 uM measured up to 60 mins by LC-MS/MS analysis
Format: ADME, Microsome
Each entry below carries its reported half-life at 1 µM.
Express it in s; write the number only.

[[record]]
smiles_str = "C=C[C@]1(C)C[C@@H](OC(=O)Cn2cc(-c3cncc(C(=O)Nc4ccc(OC)nc4)c3)nn2)[C@]2(C)[C@H](C)CC[C@]3(CCC(=O)[C@H]32)[C@@H](C)[C@@H]1O"
unit_abbrev = "s"
endpoint_result = 34.8

[[record]]
smiles_str = "C=C[C@]1(C)C[C@@H](OC(=O)CS[C@@H]2CC[C@@H](N)C[C@H]2O)[C@]2(C)[C@H](C)CC[C@]3(CCC(=O)[C@H]32)[C@@H](C)[C@@H]1O"
unit_abbrev = "s"
endpoint_result = 690


[ask] Any idea what its half-life at 1 µM is? The molecule is C=C[C@]1(C)C[C@@H](OC(=O)Cn2cc(-c3cncc(C(=O)Nc4ccc(N)nc4)c3)nn2)[C@]2(C)[C@H](C)CC[C@]3(CCC(=O)[C@H]32)[C@@H](C)[C@@H]1O
[reply] 36

* * *

assay-summary: Metabolic stability in mouse liver assessed as intrinsic clearance at 1 uM measured up to 60 mins by LC-MS/MS analysis
Assay type: ADME, tissue-based
details: read-out: CLH
readout-label: CLint scaled at 1 µM (L/h/kg)
Express it in L/h/kg; write the number only.

[[record]]
smiles_str = "C=C[C@]1(C)C[C@@H](OC(=O)Cn2cc(-c3ccc(Cn4ccnc4)nc3)nn2)[C@]2(C)[C@H](C)CC[C@]3(CCC(=O)[C@H]32)[C@@H](C)[C@@H]1O"
readout_label = "CLint scaled at 1 µM"
unit_abbrev = "L/h/kg"
endpoint_result = 140

[[record]]
smiles_str = "C=C[C@]1(C)C[C@@H](OC(=O)Cn2cc(-c3ccc(Cn4cnc5c(N)ncnc54)nc3)nn2)[C@]2(C)[C@H](C)CC[C@]3(CCC(=O)[C@H]32)[C@@H](C)[C@@H]1O"
readout_label = "CLint scaled at 1 µM"
unit_abbrev = "L/h/kg"
endpoint_result = 571

[[record]]
smiles_str = "C=C[C@]1(C)C[C@@H](OC(=O)Cn2cc(-c3cncc(NC(=O)c4ccc(OC)nc4)c3)nn2)[C@]2(C)[C@H](C)CC[C@]3(CCC(=O)[C@H]32)[C@@H](C)[C@@H]1O"
readout_label = "CLint scaled at 1 µM"
unit_abbrev = "L/h/kg"
endpoint_result = 574

[[record]]
smiles_str = "C=C[C@]1(C)C[C@@H](OC(=O)CS[C@@H]2CC[C@@H](N)C[C@H]2O)[C@]2(C)[C@H](C)CC[C@]3(CCC(=O)[C@H]32)[C@@H](C)[C@@H]1O"
readout_label = "CLint scaled at 1 µM"
unit_abbrev = "L/h/kg"
endpoint_result = 28.7

[[record]]
smiles_str = "C=C[C@]1(C)C[C@@H](OC(=O)Cn2cc(-c3cncc(NC(=O)c4ccc(OC)cc4)c3)nn2)[C@]2(C)[C@H](C)CC[C@]3(CCC(=O)[C@H]32)[C@@H](C)[C@@H]1O"
readout_label = "CLint scaled at 1 µM"
unit_abbrev = "L/h/kg"
endpoint_result = 591


Kindly consider the entry below.
[ask] Any idea what its CLint scaled at 1 µM is? The compound is C=C[C@]1(C)C[C@@H](OC(=O)Cn2cc(-c3cccc(C(=O)Nc4ncnc5[nH]cnc45)c3)nn2)[C@]2(C)[C@H](C)CC[C@]3(CCC(=O)[C@H]32)[C@@H](C)[C@@H]1O
[reply] 276

* * *

System: Enterococcus faecium
assay-summary: Antibacterial activity against vancomycin, ampicillin and ciprofloxacin resistant Enterococcus faecium clinical isolate 5 assessed as inhibition of bacterial growth incubated for 20 to 24 hrs by microbroth serial dilution method
Type: functional
details: time 20-24 hrs, read-out: MIC100
Each entry below carries its reported MIC.
Express it in µg/mL; write the number only.

Below: 2 compounds and their reported MIC.
[[record]]
smiles_str = "C=C[C@]1(C)C[C@@H](OC(=O)CSC(C)(C)CNC(=O)[C@H](N)C(C)C)[C@]2(C)[C@H](C)CC[C@]3(CCC(=O)[C@H]32)[C@@H](C)[C@@H]1O"
endpoint_result = 0.015

[[record]]
smiles_str = "C=C[C@]1(C)C[C@@H](OC(=O)Cn2cc(-c3cccc(NC(=O)c4ccc(OC)cc4)c3)nn2)[C@]2(C)[C@H](C)CC[C@]3(CCC(=O)[C@H]32)[C@@H](C)[C@@H]1O"
endpoint_result = 0.25


Kindly consider the entry below.
[ask] Any idea what its MIC is? The compound is C=C[C@]1(C)C[C@@H](OC(=O)Cn2cc(-c3ccc(Cn4ccc5c(N)ncnc54)nc3)nn2)[C@]2(C)[C@H](C)CC[C@]3(CCC(=O)[C@H]32)[C@@H](C)[C@@H]1O
[reply] 0.03

* * *

assay-summary: Metabolic stability in mouse liver assessed as intrinsic clearance at 1 uM measured up to 60 mins by LC-MS/MS analysis
Format: ADME, tissue-based
details: read-out: CLH
readout-label: CLint scaled at 1 µM (L/h/kg)
Express it in L/h/kg; write the number only.

Below: 2 compounds and their reported CLint scaled at 1 µM.
[[record]]
compound = "C=C[C@]1(C)C[C@@H](OC(=O)Cn2cc(-c3cccc(Nc4ncnc5[nH]cnc45)c3)nn2)[C@]2(C)[C@H](C)CC[C@]3(CCC(=O)[C@H]32)[C@@H](C)[C@@H]1O"
unit_abbrev = "L/h/kg"
endpoint_result = 489

[[record]]
compound = "C=C[C@]1(C)C[C@@H](OC(=O)Cn2cc(-c3ccc(Cn4ccc5c(N)ncnc54)c(OC)c3)nn2)[C@]2(C)[C@H](C)CC[C@]3(CCC(=O)[C@H]32)[C@@H](C)[C@@H]1O"
unit_abbrev = "L/h/kg"
endpoint_result = 486


Kindly consider the entry below.
[ask] Any idea what its CLint scaled at 1 µM is? The compound is C=C[C@]1(C)C[C@@H](OC(=O)Cn2cc(-c3ccc(C(O)c4ccc5c(N)ncnn45)cn3)nn2)[C@]2(C)[C@H](C)CC[C@]3(CCC(=O)[C@H]32)[C@@H](C)[C@@H]1O (stereo partly drawn)
[reply] 500
